tested on: PNT2 cells; test: MTT assay, PNT2 cells; assay type: cell-based, human; conditions: Homo sapiens, PNT2; non-cancer cells; 48 h of treatment; mean ± SD
Label scheme for IC50: lowest = under 500 nM, middle = from 500 nM up to 2000 nM, highest = 2000 nM and over

{"compound": "O=C1c2ccccc2-[n+]2ccc3c([nH]c4ccc(Br)cc43)c21.[Cl-] [Compound 6]", "classLabel": "highest"}
{"compound": "O=C1c2cc(Br)ccc2-[n+]2ccc3c([nH]c4ccc(I)cc43)c21.[Cl-] [Compound 11]", "classLabel": "middle"}
{"compound": "O=C1c2cc(Br)ccc2-[n+]2ccc3c([nH]c4ccc(Cl)cc43)c21.[Cl-] [Compound 12]", "classLabel": "highest"}
{"compound": "O=C1c2ccccc2-[n+]2c(-c3ccccc3)cc3c([nH]c4ccccc43)c21.[Cl-] [Compound 20]", "classLabel": "lowest"}
{"compound": "O=C1c2ccc(Br)cc2-[n+]2ccc3c([nH]c4cc(Br)ccc43)c21 [Compound 8, 3,10-dibromofascaplysin]", "classLabel": "highest"}
{"compound": "O=C1c2cc(Br)ccc2-[n+]2ccc3c([nH]c4ccccc43)c21.[Cl-] [Compound 4]", "classLabel": "middle"}
{"compound": "Cc1c[n+]2c(c3[nH]c4ccccc4c13)C(=O)c1ccccc1-2.[Cl-] [Compound 18]", "classLabel": "middle"}
{"compound": "O=C1c2cc(Br)ccc2-[n+]2ccc3c([nH]c4c(Cl)cc(Cl)cc43)c21.[Cl-] [Compound 14]", "classLabel": "highest"}
{"compound": "Cc1cc2c([nH]c3ccccc32)c2[n+]1-c1ccccc1C2=O.[Cl-] [Compound 19]", "classLabel": "highest"}
{"compound": "O=C1c2ccccc2-[n+]2ccc3c([nH]c4cc(Br)ccc43)c21 [Compound 5, 10-Bromofascaplysin]", "classLabel": "lowest"}
{"compound": "O=C1c2cc(Br)ccc2-[n+]2ccc3c([nH]c4ccc(Br)cc43)c21.[Cl-] [Compound 10]", "classLabel": "middle"}
{"compound": "O=C1c2ccc(Br)cc2-[n+]2ccc3c([nH]c4ccc(Br)cc43)c21.[Cl-] [Compound 15]", "classLabel": "middle"}
{"compound": "O=C1c2ccccc2-[n+]2ccc3c([nH]c4ccc(I)cc43)c21.[Cl-] [Compound 7]", "classLabel": "lowest"}
{"compound": "O=C1c2cc(Br)ccc2-[n+]2ccc3c([nH]c4c(Br)cc(Br)cc43)c21.[Cl-] [Compound 13]", "classLabel": "highest"}
{"compound": "O=C1c2ccccc2-[n+]2cc(-c3ccccc3)c3c([nH]c4ccccc43)c21.[Cl-] [Compound 16]", "classLabel": "lowest"}
{"compound": "O=C1c2ccc(Br)cc2-[n+]2ccc3c([nH]c4ccccc43)c21 [Compound 3, 3-bromofascaplysin]", "classLabel": "middle"}
{"compound": "O=C1c2ccc(Br)cc2-[n+]2ccc3c([nH]c4cccc(Br)c43)c21.[Cl-] [Compound 9]", "classLabel": "lowest"}
